- System: Pseudomonas syringae pv. syringae (Pss) SM51-19
- procedure text: Dose-response assay (MIC/MBC) in M9 minimal broth
- study conditions: Pseudomonas syringae, 48 h
metric: MIC (µM)

• COc1cc(CN(C)Cc2ccccc2)ccc1OCC(O)CN1CCCCCCC1 (centres unmarked) = 100
• Cn1cc(CNCCCn2ccnc2)c(-c2ccc(Oc3ccccc3)cc2)n1 = 200
• CCCCCCCCCCCCCCCCn1c[n+](C)c2ccccc21 = 6.25
• CCN1/C(=C/c2ccc3ccccc3[n+]2CC)C=Cc2ccccc21 = 6.25
• CC1CCC(C(C)C)C(OC(=O)Cn2c[n+](CC(=O)OC3CC(C)CCC3C(C)C)c3ccccc32)C1 (centres unmarked) = 12.5
